experimental system: Prostaglandin G/H synthase 2 (Homo sapiens)
Sequence (P35354 whole entry): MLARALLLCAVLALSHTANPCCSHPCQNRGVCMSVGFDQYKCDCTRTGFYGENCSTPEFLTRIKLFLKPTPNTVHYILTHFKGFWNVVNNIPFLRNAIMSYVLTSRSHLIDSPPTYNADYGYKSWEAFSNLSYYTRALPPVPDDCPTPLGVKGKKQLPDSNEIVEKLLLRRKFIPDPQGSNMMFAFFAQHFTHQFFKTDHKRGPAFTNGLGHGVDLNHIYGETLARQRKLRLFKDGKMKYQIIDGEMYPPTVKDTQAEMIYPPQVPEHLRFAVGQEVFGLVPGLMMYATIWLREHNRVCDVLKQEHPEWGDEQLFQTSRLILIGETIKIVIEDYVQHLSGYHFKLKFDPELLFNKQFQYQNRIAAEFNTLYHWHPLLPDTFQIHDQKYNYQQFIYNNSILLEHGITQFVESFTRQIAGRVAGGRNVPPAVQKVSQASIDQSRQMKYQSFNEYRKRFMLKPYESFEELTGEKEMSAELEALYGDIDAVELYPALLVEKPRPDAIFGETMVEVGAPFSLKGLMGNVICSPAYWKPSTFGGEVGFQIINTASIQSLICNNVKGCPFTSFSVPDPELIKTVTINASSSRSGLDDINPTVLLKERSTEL
test method notes: In vitro inhibitory activity against recombinant human Prostaglandin G/H synthase 2
Assign labels as follows, please: fulfilled for IC50 below 800 nM; not fulfilled for IC50 equal to or exceeding 800 nM.

Before answering, review these 5 worked examples.
CSc1ccc(C2=C3c4cc(C)ccc4CCC3OC2=O)cc1 (stereo unspecified); not fulfilled
CSc1ccc(C2=C3c4ccccc4CCC3OC2=O)cc1 (stereo unspecified); not fulfilled
CSc1ccc(C2=C3c4cc(C)ccc4CCC3(O)OC2=O)cc1 (stereo unspecified); fulfilled
CSc1ccc(C2=C3c4ccccc4CCC3(O)OC2=O)cc1 (stereo unspecified); not fulfilled
Cc1ccc2c(c1)C1=C(c3ccc(S(C)(=O)=O)cc3)C(=O)OC1CC2 (stereo unspecified); fulfilled

Kindly consider the entry below.
Is the reported IC50 for CS(=O)(=O)c1ccc(C2=C3c4ccccc4CCC3OC2=O)cc1 (stereo unspecified) strictly below 800 nM?
fulfilled

###

Measured inhibition of individual entries
experimental system: Prostaglandin G/H synthase 1 (Homo sapiens)
Sequence (P23219 whole entry): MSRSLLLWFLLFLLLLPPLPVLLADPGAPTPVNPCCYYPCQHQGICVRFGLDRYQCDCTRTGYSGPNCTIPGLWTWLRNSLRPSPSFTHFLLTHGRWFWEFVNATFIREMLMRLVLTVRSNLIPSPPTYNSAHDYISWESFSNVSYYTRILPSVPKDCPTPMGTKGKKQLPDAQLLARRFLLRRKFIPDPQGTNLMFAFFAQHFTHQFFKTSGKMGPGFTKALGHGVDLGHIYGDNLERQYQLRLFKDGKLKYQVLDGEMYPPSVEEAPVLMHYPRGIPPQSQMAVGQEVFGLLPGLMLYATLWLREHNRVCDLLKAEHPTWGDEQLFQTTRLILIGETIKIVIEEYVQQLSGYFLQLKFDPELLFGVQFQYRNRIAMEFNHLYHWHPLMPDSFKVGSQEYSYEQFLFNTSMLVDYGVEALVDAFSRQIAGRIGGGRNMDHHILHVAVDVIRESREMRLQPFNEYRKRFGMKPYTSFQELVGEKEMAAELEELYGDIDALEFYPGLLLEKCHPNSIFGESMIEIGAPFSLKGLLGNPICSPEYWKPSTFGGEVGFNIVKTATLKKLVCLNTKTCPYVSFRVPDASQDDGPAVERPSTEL
test method notes: In vitro inhibitory activity against recombinant human Prostaglandin G/H synthase 1 at concentration of 100 uM
Quick note: give the figure in %, leave out the unit.

Consider the reported inhibition for these compounds:
CSc1ccc(C2=C3c4ccccc4CCC3OC2=O)cc1 (stereo not drawn); 100
C[S+]([O-])c1ccc(C2=C3c4ccccc4CCC3(O)OC2=O)cc1 (stereo not drawn); 11

Please report the recorded inhibition for CSc1ccc(C2=C3c4cc(C)ccc4CCC3OC2=O)cc1 (stereo not drawn) .
100

Consider the compound CSc1ccc(C2=C3c4ccccc4CCC3(O)OC2=O)cc1 (stereo not drawn) and give its measured inhibition.
80

Given the entry Cc1ccc2c(c1)C1=C(c3ccc(S(C)(=O)=O)cc3)C(=O)OC1CC2 (stereo not drawn) , report its measured inhibition.
52

Query: inhibition; subject: CS(=O)(=O)c1ccc(C2=C3c4ccccc4CCC3(O)OC2=O)cc1 (stereo not drawn)
57

So what's the measured inhibition for this one? CSc1ccc(C2=C3c4cc(C)ccc4CCC3(O)OC2=O)cc1 (stereo not drawn)
97

Need inhibition, item CS(=O)(=O)c1ccc(C2=C3c4ccccc4CCC3OC2=O)cc1 (stereo not drawn)
100
